Some molecules, each annotated with its measured EC50.
# tgt: JAK1 (aa 850-1154, catalytic domain, GST-tag) (Homo sapiens, UniProt P23458)
# Construct: JAK1 (aa 850-1154) and TYK2 (aa 871-1187) are expressed with an N-terminally fused GST-tag; GST (N); purchased Carna Biosciences, Inc; host or cells: baculovirus expression system
# Sequence (P23458 850-1154): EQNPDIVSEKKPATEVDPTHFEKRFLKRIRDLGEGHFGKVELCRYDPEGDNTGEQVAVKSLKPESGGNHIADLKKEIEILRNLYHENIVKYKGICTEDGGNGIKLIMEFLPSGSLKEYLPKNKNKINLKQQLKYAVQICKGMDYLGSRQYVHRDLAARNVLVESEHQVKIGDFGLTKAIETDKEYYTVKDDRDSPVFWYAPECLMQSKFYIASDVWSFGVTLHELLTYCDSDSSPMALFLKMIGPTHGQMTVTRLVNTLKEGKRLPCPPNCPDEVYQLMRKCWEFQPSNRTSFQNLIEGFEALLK
# assay-procedure: JAK kinase assay (HTRF, phosphorylation of TK substrate-biotin), JAK1
# Type: biochemical
# assay-setup: ATP at Km (7 μM); read-out: JAK1 kinase inhibitory activity (EC50 indicator)

[Q] Could you share which EC50 value was measured for NS(=O)(=O)c1ccc(C(=O)C(=O)N2CCN(c3ncnc4[nH]ccc34)CC23CC3)cc1 [Example 63] ?
[A] < 100 nM

[Q] So what's the measured EC50 for this one? CC(=O)NCC(=O)N1CCN(c2ncnc3[nH]ccc23)CC12CC2 [Example 151]
[A] 100 to 500 nM

[Q] # query: EC50 of entry CCOC(=O)N1[C@@H]2CC[C@H]1CN(c1ncnc3[nH]ccc13)C2 [Example 52]
[A] 100 to 500 nM
